System: Human immunodeficiency virus 1
experimental details: Inhibitory concentration against HIV-1 LTR polymerase chain reaction product
Type: functional
The entries below come with measured IC50 values attached.
assay endpoint: IC50 (µM)

INSERT INTO assay_data (smi, target_desc, unit_label, qualifier_sign, val) VALUES
  ('COC(=O)CCOc1cc2c(cc1OC)C(=O)N1CCC[C@H]1C=N2', 'Human immunodeficiency virus 1', 'µM', '>', 250),
  ('COc1cc2c(cc1OCCC(=O)Nc1cc(C(=O)Nc3cc(C(=O)Nc4cc(C(=O)Nc5cc(C(=O)NCCC(=N)N)n(C)c5)n(C)c4)n(C)c3)n(C)c1)N=C[C@@H]1CCCN1C2=O', 'Human immunodeficiency virus 1', 'µM', '=', 2),
  ('Cn1cc(NC(=O)c2cc(NC(=O)c3cc(NC(=O)c4cc(N)cn4C)cn3C)cn2C)cc1C(=O)NCCC(=N)N', 'Human immunodeficiency virus 1', 'µM', '=', 20),
  ('Cn1cc(NC(=O)c2cc(NC(=O)c3cc(NC=O)cn3C)cn2C)cc1C(=O)NCCC(=N)N', 'Human immunodeficiency virus 1', 'µM', '=', 50),
  ('COc1cc2c(cc1OCCC(=O)Nc1cc(C(=O)Nc3cc(C(=O)Nc4cc(C(=O)NCCC(=N)N)n(C)c4)n(C)c3)n(C)c1)N=C[C@@H]1CCCN1C2=O', 'Human immunodeficiency virus 1', 'µM', '=', 2),
  ('COc1cc2c(cc1OCCC(=O)Nc1cc(C(=O)Nc3cc(C(=O)NCCC(=N)N)n(C)c3)n(C)c1)N=C[C@@H]1CCCN1C2=O', 'Human immunodeficiency virus 1', 'µM', '=', 0.8),
  ('COc1cc2c(cc1OCCC(=O)Nc1cc(C(=O)NCCC(=N)N)n(C)c1)N=C[C@@H]1CCCN1C2=O', 'Human immunodeficiency virus 1', 'µM', '=', 1);

====

experimental details: Inhibitory concentration against human c-myc polymerase chain reaction product
Assay type: functional
pIC50: −log10 of the molar value.
Please use y whenever pIC50 is not below 5, and n whenever it is.

INSERT INTO results (smi, class_name) VALUES
  ('COc1cc2c(cc1OCCC(=O)Nc1cc(C(=O)NCCC(=N)N)n(C)c1)N=C[C@@H]1CCCN1C2=O', 'y'),
  ('COC(=O)CCOc1cc2c(cc1OC)C(=O)N1CCC[C@H]1C=N2', 'n'),
  ('COc1cc2c(cc1OCCC(=O)Nc1cc(C(=O)Nc3cc(C(=O)Nc4cc(C(=O)NCCC(=N)N)n(C)c4)n(C)c3)n(C)c1)N=C[C@@H]1CCCN1C2=O', 'y'),
  ('COc1cc2c(cc1OCCC(=O)Nc1cc(C(=O)Nc3cc(C(=O)Nc4cc(C(=O)Nc5cc(C(=O)NCCC(=N)N)n(C)c5)n(C)c4)n(C)c3)n(C)c1)N=C[C@@H]1CCCN1C2=O', 'y'),
  ('Cn1cc(NC(=O)c2cc(NC(=O)c3cc(NC=O)cn3C)cn2C)cc1C(=O)NCCC(=N)N', 'n'),
  ('COc1cc2c(cc1OCCC(=O)Nc1cc(C(=O)Nc3cc(C(=O)NCCC(=N)N)n(C)c3)n(C)c1)N=C[C@@H]1CCCN1C2=O', 'y');

====

Tested on: Jurkat
experimental details: In vitro inhibition of Jurkat cell proliferation
Type: functional, cell-based
assay conditions: Homo sapiens
pIC50: −log10 of the molar value.
assay endpoint: pIC50

INSERT INTO measurements (smi, target_desc, val) VALUES
  ('Cn1cc(NC(=O)c2cc(NC(=O)c3cc(NC(=O)c4cc(N)cn4C)cn3C)cn2C)cc1C(=O)NCCC(=N)N', 'Jurkat', 4.60),
  ('Cn1cc(NC(=O)c2cc(NC(=O)c3cc(NC=O)cn3C)cn2C)cc1C(=O)NCCC(=N)N', 'Jurkat', 4.70),
  ('COc1cc2c(cc1OCCC(=O)Nc1cc(C(=O)Nc3cc(C(=O)NCCC(=N)N)n(C)c3)n(C)c1)N=C[C@@H]1CCCN1C2=O', 'Jurkat', 4.30),
  ('COc1cc2c(cc1OC)C(=O)N1CCC[C@H]1C=N2', 'Jurkat', 5.66),
  ('COc1cc2c(cc1OCCC(=O)Nc1cc(C(=O)Nc3cc(C(=O)Nc4cc(C(=O)Nc5cc(C(=O)NCCC(=N)N)n(C)c5)n(C)c4)n(C)c3)n(C)c1)N=C[C@@H]1CCCN1C2=O', 'Jurkat', 7.15),
  ('COc1cc2c(cc1OCCC(=O)Nc1cc(C(=O)NCCC(=N)N)n(C)c1)N=C[C@@H]1CCCN1C2=O', 'Jurkat', 4.10),
  ('COC(=O)CCOc1cc2c(cc1OC)C(=O)N1CCC[C@H]1C=N2', 'Jurkat', 5.52),
  ('COc1cc2c(cc1OCCC(=O)Nc1cc(C(=O)Nc3cc(C(=O)Nc4cc(C(=O)NCCC(=N)N)n(C)c4)n(C)c3)n(C)c1)N=C[C@@H]1CCCN1C2=O', 'Jurkat', 6.10);

====

target desc: Nucleic Acid
experimental details: Inhibitory concentration against human estrogen receptor(ER) polymerase chain reaction product
Listed compounds paired with reported log10(IC50)
assay endpoint: log10(IC50) (log10 of the value in nM)

INSERT INTO assay_data (smi, assay_endpoint, val) VALUES
  ('COc1cc2c(cc1OCCC(=O)Nc1cc(C(=O)Nc3cc(C(=O)NCCC(=N)N)n(C)c3)n(C)c1)N=C[C@@H]1CCCN1C2=O', 'log10(IC50)', 3.30),
  ('Cn1cc(NC(=O)c2cc(NC(=O)c3cc(NC(=O)c4cc(N)cn4C)cn3C)cn2C)cc1C(=O)NCCC(=N)N', 'log10(IC50)', 2.70),
  ('COc1cc2c(cc1OCCC(=O)Nc1cc(C(=O)Nc3cc(C(=O)Nc4cc(C(=O)Nc5cc(C(=O)NCCC(=N)N)n(C)c5)n(C)c4)n(C)c3)n(C)c1)N=C[C@@H]1CCCN1C2=O', 'log10(IC50)', 2.30),
  ('COc1cc2c(cc1OCCC(=O)Nc1cc(C(=O)Nc3cc(C(=O)Nc4cc(C(=O)NCCC(=N)N)n(C)c4)n(C)c3)n(C)c1)N=C[C@@H]1CCCN1C2=O', 'log10(IC50)', 2.90),
  ('COc1cc2c(cc1OCCC(=O)Nc1cc(C(=O)NCCC(=N)N)n(C)c1)N=C[C@@H]1CCCN1C2=O', 'log10(IC50)', 3.48),
  ('Cn1cc(NC(=O)c2cc(NC(=O)c3cc(NC=O)cn3C)cn2C)cc1C(=O)NCCC(=N)N', 'log10(IC50)', 3.70);
